Tested on: JB6 P+ cells
Experiment: Soft agar assay with competitive adrenergic receptor antagonists
Format: cell-based
Details: Mus musculus, alone, CGP 12177 experiment (S2 Fig)
Quantity name: pIC50
Scale explanation: pIC50 corresponds to minus log10 of a concentration expressed in moles per litre.

QUERY: Field request: pIC50 | item: OC(CNCC(O)C1CCc2cc(F)ccc2O1)C1CCc2cc(F)ccc2O1 (stereo not shown)
RESULT: 6.46

====

System: JB6 P+ cells
Test: Anchorage-independent growth assay in soft agar (EGF-induced JB6 P+ colony formation)
Format: cell-based, mouse
Details: Mus musculus; efficacy of inhibition of colony formation, reported if non-toxic
Quantity name: Emax
Kindly format the answer as number then unit.

Worked cases, answers included:
CC(CCc1ccccc1)NCC(O)c1ccc(O)c(C(N)=O)c1 (stereo not shown) [Labetalol]
90.3%
CC(C)NCC(O)COc1ccc(CC(N)=O)cc1 (stereo not shown) [Atenolol]
47.9%
CC(C)(C)NC[C@H](O)COc1nsnc1N1CCOCC1 [Timolol]
100%
COc1ccccc1OCCNCC(O)COc1cccc2[nH]c3ccccc3c12 (stereo not shown) [Carvedilol]
94.7%
C=CCc1ccccc1OCC(O)CNC(C)C (stereo not shown) [Alprenolol]
93.8%
OC(CNCC(O)C1CCc2cc(F)ccc2O1)C1CCc2cc(F)ccc2O1 (stereo not shown) [Nebivolol]
96.5%

Next up:
QUERY: Query (compound): CC(C)NCC(O)c1ccc2ccccc2c1 (stereo not shown) [Pronethalol] ; field requested: Emax
RESULT: 100%

====

Tested on: JB6 P+ cells
Experiment: Soft agar assay with competitive adrenergic receptor antagonists
Format: cell-based
Details: Mus musculus, alone, nadolol experiment (Fig 5A)
Procedure: Ten ng/mL EGF was used to promote the anchorage-independent growth of JB6 cells. […] Plates were incubated at 37°C, 5% CO2 for 14 days. Colonies with greater than ten cells were counted manually under a microscope. Antagonists identified in our assays as ineffective at blocking EGF-mediated transformation of JB6 P+ cells yet displaying no or little toxicity were used as competitive antagonists towards carvedilol-mediated prevention of EGF-induced transformation of JB6 P+ cells.
Quantity name: IC50 (nM)
I only need the number, in nM, no unit after it.

QUERY: Lookup: IC50 / JB6 P+ cells / COc1ccccc1OCCNCC(O)COc1cccc2[nH]c3ccccc3c12 (stereo not shown)
RESULT: 282

====

Tested on: JB6 P+ cells
Experiment: Soft agar assay with competitive adrenergic receptor antagonists
Format: cell-based
Conditions: Mus musculus, alone, HEAT HCl experiment (Fig 5C)
Quantity name: pIC50
Keep in mind that pIC50 stands for -log10 of concentration in molar terms.

QUERY: What does the record list as pIC50 for COc1ccccc1OCCNCC(O)COc1cccc2[nH]c3ccccc3c12 (stereo not shown) [Carvedilol] ?
RESULT: 6.56

====

System: JB6 P+ cells
Test: SRB cytotoxicity assay
Type: cell-based, mouse
Conditions: 72 hr; NT = no toxicity at any concentration tested
Quantity name: SRB Assay Log IΔ2*PSD (log [M])
Report the figure in log [M] without appending any unit label.

Solved entries:
CC(C)NCC(O)c1ccc(O)c(O)c1 (centres unmarked) [Isoproterenol]
-4.77
COc1ccccc1OCCNCC(O)COc1cccc2[nH]c3ccccc3c12 (centres unmarked) [Carvedilol]
-4.89
CC(C)NCC(O)COc1cccc2[nH]c3ccccc3c12 (centres unmarked) [Carazolol]
-5.00
C=CCc1ccccc1OCC(O)CNC(C)C (centres unmarked) [Alprenolol]
-4.95

QUERY: For the molecule CCCC(=O)Nc1ccc(OCC(O)CNC(C)C)c(C(C)=O)c1 (centres unmarked) [Acebutolol] , what SRB Assay Log IΔ2*PSD is on record?
RESULT: -3.39
